Listing of entries alongside the reported max % larvae.
- System: Danio rerio embryo/larva
- EXPERIMENT_SUMMARY: max % larvae with any abnormality across tested concentrations; max tested concentration (log10 uM): 2; higher = more toxic; extreme values may be limits of the assay
- CONDITION_SUMMARY: exposure: 6-8 hpf to 5 dpf, scored at 6 dpf

A selection of reference data follows.
- COMPOUND: "FC(F)(F)C(F)(F)C(F)(F)C(F)(F)C(F)(F)C(F)(F)C(F)(F)I"
  OBSERVABLE: "max % larvae"
  ASSAY_RESULT: "83.3%"
- COMPOUND: "O=C(O)C(F)(F)OC(F)(F)C(F)(F)OC(F)(F)C(F)(F)C(F)(F)C(F)(F)F"
  OBSERVABLE: "max % larvae"
  ASSAY_RESULT: "91.7%"
- COMPOUND: "OCC(F)(F)OC(F)(F)C(F)(F)OC(F)(F)CO"
  OBSERVABLE: "max % larvae"
  ASSAY_RESULT: "0%"
- COMPOUND: "O=C(O)C(F)(F)C(F)(F)C(F)F"
  OBSERVABLE: "max % larvae"
  ASSAY_RESULT: "0%"
- COMPOUND: "C=CC(=O)OCCC(F)(F)C(F)(F)C(F)(F)C(F)(F)F [2-(Perfluorobutyl)ethyl acrylate]"
  OBSERVABLE: "max % larvae"
  ASSAY_RESULT: "100%"

Notebook: O=C(Cl)C(F)(F)C(F)(F)C(F)(F)C(=O)Cl [Hexafluoroglutaryl chloride] , max % larvae read as 0%

Notebook: FC(F)(F)C(F)(F)CNCC(F)(F)C(F)(F)F , max % larvae read as 16.7%

Notebook: NC(=O)C(F)(F)C(F)(F)C(F)(F)C(F)(F)C(N)=O [Octafluoroadipamide] , max % larvae read as 0%

----------
Listing of entries alongside the reported max % larvae.
- Tested on: Danio rerio embryo/larva
- EXPERIMENT_SUMMARY: max % larvae with abnormal position across tested concentrations; higher = more toxic; extreme values may be limits of the assay
- CONDITION_SUMMARY: exposure: 6-8 hpf to 5 dpf, scored at 6 dpf
Give your result in % as a bare value.

A selection of reference data follows.
- MOLECULE: "O=C(O)C(F)(F)C(F)(F)C(F)(F)C(F)(F)C(F)(F)C(F)(F)C(F)(F)F [Perfluorooctanoic acid] (max tested concentration (log10 uM): 2)"
  max % larvae (%): 8.33
- MOLECULE: "O=S(=O)(OCC(F)(F)F)C(F)(F)C(F)(F)C(F)(F)C(F)(F)F [2,2,2-Trifluoroethyl perfluorobutanesulfonate] (max tested concentration (log10 uM): 2)"
  max % larvae (%): 11.4

Lab note: next molecule to report on.
Notebook: FC(F)(F)C(F)(F)C(F)(F)C(F)(F)C(F)(F)C(F)(F)C(F)(F)CCI [1-Iodo-1H,1H,2H,2H-perfluorononane] (max tested concentration (log10 uM): 1.60206) , max % larvae read as 0

----------
- System: Danio rerio embryo/larva
- EXPERIMENT_SUMMARY: BMC any abnormality; max tested concentration (log10 uM): 2; higher = less potent
- CONDITION_SUMMARY: exposure: 6-8 hpf to 5 dpf, scored at 6 dpf
OBSERVABLE: BMC any abnormality (µM)
Give your result in µM as a bare value.

- MOLECULE: "FC(F)(I)C(F)(F)C(F)(F)C(F)(F)C(F)(F)C(F)(F)I"
  RESULT_UNIT: "µM"
  BMC any abnormality: 5.18
- MOLECULE: "OCC(F)(F)C(F)(F)C(F)(F)C(F)(F)C(F)(F)C(F)(F)F"
  RESULT_UNIT: "µM"
  BMC any abnormality: 73.3
- MOLECULE: "FC(F)C(F)(F)COCC1CO1 (centres undefined)"
  RESULT_UNIT: "µM"
  BMC any abnormality: 26.5
- MOLECULE: "C[N+](C)(C)CCCNS(=O)(=O)C(F)(F)C(F)(F)C(F)(F)C(F)(F)C(F)(F)C(F)(F)C(F)(F)C(F)(F)F"
  RESULT_UNIT: "µM"
  BMC any abnormality: 22.3
- MOLECULE: "OCCCCC(F)(F)C(F)(F)C(F)(F)C(F)(F)F"
  RESULT_UNIT: "µM"
  BMC any abnormality: 25.5

Lab note: next molecule to report on.
Notebook: O=C(O)C(F)(F)C(F)(F)C(F)(F)C(F)(F)C(F)(F)C(F)(F)C(F)(F)C(F)(F)C(F)(F)C(F)(F)F , BMC any abnormality read as 2.94

src = the supplement of paper PMC11281043
